Ref: ChEMBL document CHEMBL1201862

tested on: K562; test: NCI tumour cell line growth inhibition, 48 h
The source made the active and inactive calls. Cut-off read from the data, not from the text of the source: active = GI50 up to about 1.1 µM and inactive = higher.
Possible outcomes: True for active, False for inactive

| Molecule | Experimental system | Class label |
| --- | --- | --- |
| COc1ccc(/N=N/c2c(-c3ccccc3)nn(C(=O)CC(=O)Nc3cccc(Cl)c3)c2-c2ccccc2)cc1 | K562 | False |
| Cc1[nH]c2ccccc2c1C(=O)/C=C/c1ccccc1O | K562 | False |
| CCc1cc2c(c3c1CCCC3=O)CC1(Cc3ccc(C(=O)OC)cc3C1)C2 (stereo not given) | K562 | False |
| COc1ccc2c(=O)c3ccoc3[nH]c2c1 | K562 | False |
| O=C(CNc1cccc([N+](=O)[O-])c1)Nn1c(-c2ccccc2)nc2ccccc2c1=O | K562 | True |
| Cc1ccc(S(=O)(=O)C(C#N)c2nc3ccccc3nc2N2CCOCC2)cc1 (stereo not given) | K562 | False |
| O=C(CCc1cc(O)ccc1O)OCCc1ccccc1 | K562 | False |
| COc1nc(Cl)c(Cl)c(Cl)n1.COc1nc(Cl)nc(Cl)c1Cl | K562 | True |
| COc1cc2c(c3c1c(=O)c1ccccc1n3C)C=C([N+](=O)[O-])C(C)(C)O2 | K562 | True |
| COC(C/C(=C/CO[Si](C(C)C)(C(C)C)C(C)C)C(=O)N(COCC[Si](C)(C)C)c1ccccc1I)OC | K562 | False |
| COC(=O)CCSC(=O)Nc1ccccc1Cl | K562 | False |
| CCOC(=O)Nc1[nH]cc(-c2ccccc2)c1C#N | K562 | False |
| Oc1cccnc1CN1CCCCC1 | K562 | False |
| CNC(=O)N(CCCC(NC(C)=O)C(=O)NCc1ccccc1)Cc1ccccc1 (stereo not given) | K562 | False |
| CC1(C)[C@@H]2C[C@H]1c1cnc(-c3ccccn3)cc1[C@H]2C(O)[C@@H]1c2cc(-c3ccccn3)ncc2[C@H]2C[C@@H]1C2(C)C (stereo not given in full) | K562 | True |
